Subject of test: T1, r murine EphA7 (mouse, UniProt Q61772)
T1 construct: recombinant Fc fusion (R&D Systems); also called rmuEphA7-Fc; mEphA7
T1 sequence (receptor-Fc fusion, looked up): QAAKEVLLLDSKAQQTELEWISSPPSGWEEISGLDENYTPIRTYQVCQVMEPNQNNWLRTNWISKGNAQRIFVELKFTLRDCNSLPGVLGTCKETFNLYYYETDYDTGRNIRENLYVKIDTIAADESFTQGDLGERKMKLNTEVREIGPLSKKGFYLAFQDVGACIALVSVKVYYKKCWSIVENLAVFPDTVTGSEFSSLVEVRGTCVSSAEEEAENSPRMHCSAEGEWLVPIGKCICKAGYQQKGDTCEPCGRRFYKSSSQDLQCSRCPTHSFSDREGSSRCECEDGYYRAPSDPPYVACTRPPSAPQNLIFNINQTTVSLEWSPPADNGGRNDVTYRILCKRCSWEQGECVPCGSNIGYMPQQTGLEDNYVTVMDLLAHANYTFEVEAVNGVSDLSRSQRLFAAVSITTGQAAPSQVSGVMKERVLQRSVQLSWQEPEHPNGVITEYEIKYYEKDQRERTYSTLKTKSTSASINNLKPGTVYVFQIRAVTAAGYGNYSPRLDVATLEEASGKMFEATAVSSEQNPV
Procedure text: activity ELISA, Fab on coated antigen
Measure name: binding result

1D11 Fab (affinity optimized combinatorial variant of Fab20) (Fab, V domains shown) VH: QVQLLQSGAEVKKPGASVKVPCKASGYTFTSRAMSWVRQAPGQGLEWMGWINTNTGNPTYAQGFTGRFVFSLDTSVSTAYLQISSLKAEDTAVYYCARVRTTVYGDNMDVWGQGTLVTVSS VL: EIVLTQSPATLSVSPGERATLSCRASQSVSSNLPWYQQKPGQAPRLLIYGASTRATGIPDRFSASGSGTDFTLTISRVEPEDFAVYYCQQYGPSWTFGQGTKVEIK : binds
2C9 Fab (affinity optimized combinatorial variant of Fab20) (Fab, V domains shown) VH: QVQLLQSGAEVKKPGASVKVPCKASGYTFTSRAMSWVRQAPGQGLEWMGWINTNTGNPTYAQGFTGRFVFSLDTSVSTAYLQISSLKAEDTAVYYCARVRFTVYGDGMDVWGQGTLVTVSS VL: EIVLTQSPATLSVSPGERATLSCRASQSVSSNLAWYQQKPGQAPRLLIYGASTRPTGIPDRFSASGSGTDFTLTISRVEPEDFAVYYCQQYGPSWTFGQGTKVEIK : binds
6B7 Fab (affinity optimized combinatorial variant of Fab20) (Fab, V domains shown) VH: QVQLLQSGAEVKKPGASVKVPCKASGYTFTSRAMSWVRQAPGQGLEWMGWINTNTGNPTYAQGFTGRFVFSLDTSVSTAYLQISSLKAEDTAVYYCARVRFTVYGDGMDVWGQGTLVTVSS VL: EIVLTQSPATLSVSPGERATLSCRASQSVSSNPAWYQQKPGQAPRLLIYGASTRATGIPDRFSASGSGTDFTLTISRVEPEDFAVYYCQQYGPSWTFGQGTKVEIK : binds

These data points were gathered from patent US20060121042A1.
